- targetSystem: MSI1 full-length (mouse, UniProt Q61474 1-362)
- Sequence (Q61474 whole entry): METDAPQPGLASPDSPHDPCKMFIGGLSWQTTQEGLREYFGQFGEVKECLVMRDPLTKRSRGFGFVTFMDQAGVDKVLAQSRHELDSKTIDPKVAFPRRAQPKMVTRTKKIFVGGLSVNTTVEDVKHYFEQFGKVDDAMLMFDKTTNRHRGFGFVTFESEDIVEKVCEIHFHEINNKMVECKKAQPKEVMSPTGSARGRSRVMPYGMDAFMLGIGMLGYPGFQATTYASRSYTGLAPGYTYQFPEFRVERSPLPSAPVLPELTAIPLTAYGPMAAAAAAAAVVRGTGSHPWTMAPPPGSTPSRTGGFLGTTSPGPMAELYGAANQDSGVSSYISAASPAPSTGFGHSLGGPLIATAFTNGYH
- methodNotes: nsRBNS (natural sequence RNA bind-n-seq); RBNS binding buffer (assumed for nsRBNS): 25 mM Tris pH 7.5, 150 mM KCl, 3 mM MgCl2, 0.01% Triton X-100, 500 ug/ml BSA, 20 U/ml SUPERase-In, 4 C; UNK is unkempt and MSI1 is Musashi-1; names of the RNAs are library labels; protein concentration not given here; high values mean tight binding
The full ranking holds about 5,800 sequences; the median of “enrichment r” is about 0.54, and the highest 2% start at about 16. Shown is part of a subset that was picked to be rich in the highest values.
Give binding signal for every item shown.
Report only the number, with the unit enrichment R understood.

get_value(item= chr8:74853834:74853946:+|3pUTR|ENSG00000137558|unk|FALSE|unique (ssRNA) RNA: GGGAGUUCUACAGUCCGACGAUCAAGUGCUUUUUUUUUUCUGAAUUAAUUAGGUAUUGGUAAAAUAUAUUUUUAAAUUUAGUUAGCUUUAUAAACACAAUUAGAAUUACAAUUAAUUAACAGAGGUAUAAUUGUCUCACUUUCCAACAGAGGAUUGAGCAUCA , readout=binding signal) returns 47.1

get_value(item= chr3:97755980:97756081:+|3pUTR|ENSG00000080224|unk|total|mutant (ssRNA) RNA: GGGAGUUCUACAGUCCGACGAUCUAAUUAAAAAUCUCUUUCCUACCUUCCGUAAUUUGCCGGAUGAACUGUAUGCAUUCCGACCGAAAUUGCUUUUGUUAAAUUUACAUUUAAACACAUCUUCAUUCACUCCGAGAAGCCAUACAACAGAGGAUUGAGCAUCA , readout=binding signal) returns 1.21
